Assay: Clearance in dog at 1.7 mg/kg, iv or 4.2 mg/kg, po
Format: ADME, organism-based, Canis lupus familiaris
Details: in vivo
Endpoint: clearance (mL/min/kg)
Respond with the bare value in mL/min/kg.

State its clearance for this compound: COCc1ccc(-c2ccc3ncc(C(N)=O)c(N[C@@H](C)C4CCOCC4)c3c2)cn1
50

* * *

Target: Serine/threonine-protein kinase ATR (Homo sapiens)
Sequence (Q13535 whole entry): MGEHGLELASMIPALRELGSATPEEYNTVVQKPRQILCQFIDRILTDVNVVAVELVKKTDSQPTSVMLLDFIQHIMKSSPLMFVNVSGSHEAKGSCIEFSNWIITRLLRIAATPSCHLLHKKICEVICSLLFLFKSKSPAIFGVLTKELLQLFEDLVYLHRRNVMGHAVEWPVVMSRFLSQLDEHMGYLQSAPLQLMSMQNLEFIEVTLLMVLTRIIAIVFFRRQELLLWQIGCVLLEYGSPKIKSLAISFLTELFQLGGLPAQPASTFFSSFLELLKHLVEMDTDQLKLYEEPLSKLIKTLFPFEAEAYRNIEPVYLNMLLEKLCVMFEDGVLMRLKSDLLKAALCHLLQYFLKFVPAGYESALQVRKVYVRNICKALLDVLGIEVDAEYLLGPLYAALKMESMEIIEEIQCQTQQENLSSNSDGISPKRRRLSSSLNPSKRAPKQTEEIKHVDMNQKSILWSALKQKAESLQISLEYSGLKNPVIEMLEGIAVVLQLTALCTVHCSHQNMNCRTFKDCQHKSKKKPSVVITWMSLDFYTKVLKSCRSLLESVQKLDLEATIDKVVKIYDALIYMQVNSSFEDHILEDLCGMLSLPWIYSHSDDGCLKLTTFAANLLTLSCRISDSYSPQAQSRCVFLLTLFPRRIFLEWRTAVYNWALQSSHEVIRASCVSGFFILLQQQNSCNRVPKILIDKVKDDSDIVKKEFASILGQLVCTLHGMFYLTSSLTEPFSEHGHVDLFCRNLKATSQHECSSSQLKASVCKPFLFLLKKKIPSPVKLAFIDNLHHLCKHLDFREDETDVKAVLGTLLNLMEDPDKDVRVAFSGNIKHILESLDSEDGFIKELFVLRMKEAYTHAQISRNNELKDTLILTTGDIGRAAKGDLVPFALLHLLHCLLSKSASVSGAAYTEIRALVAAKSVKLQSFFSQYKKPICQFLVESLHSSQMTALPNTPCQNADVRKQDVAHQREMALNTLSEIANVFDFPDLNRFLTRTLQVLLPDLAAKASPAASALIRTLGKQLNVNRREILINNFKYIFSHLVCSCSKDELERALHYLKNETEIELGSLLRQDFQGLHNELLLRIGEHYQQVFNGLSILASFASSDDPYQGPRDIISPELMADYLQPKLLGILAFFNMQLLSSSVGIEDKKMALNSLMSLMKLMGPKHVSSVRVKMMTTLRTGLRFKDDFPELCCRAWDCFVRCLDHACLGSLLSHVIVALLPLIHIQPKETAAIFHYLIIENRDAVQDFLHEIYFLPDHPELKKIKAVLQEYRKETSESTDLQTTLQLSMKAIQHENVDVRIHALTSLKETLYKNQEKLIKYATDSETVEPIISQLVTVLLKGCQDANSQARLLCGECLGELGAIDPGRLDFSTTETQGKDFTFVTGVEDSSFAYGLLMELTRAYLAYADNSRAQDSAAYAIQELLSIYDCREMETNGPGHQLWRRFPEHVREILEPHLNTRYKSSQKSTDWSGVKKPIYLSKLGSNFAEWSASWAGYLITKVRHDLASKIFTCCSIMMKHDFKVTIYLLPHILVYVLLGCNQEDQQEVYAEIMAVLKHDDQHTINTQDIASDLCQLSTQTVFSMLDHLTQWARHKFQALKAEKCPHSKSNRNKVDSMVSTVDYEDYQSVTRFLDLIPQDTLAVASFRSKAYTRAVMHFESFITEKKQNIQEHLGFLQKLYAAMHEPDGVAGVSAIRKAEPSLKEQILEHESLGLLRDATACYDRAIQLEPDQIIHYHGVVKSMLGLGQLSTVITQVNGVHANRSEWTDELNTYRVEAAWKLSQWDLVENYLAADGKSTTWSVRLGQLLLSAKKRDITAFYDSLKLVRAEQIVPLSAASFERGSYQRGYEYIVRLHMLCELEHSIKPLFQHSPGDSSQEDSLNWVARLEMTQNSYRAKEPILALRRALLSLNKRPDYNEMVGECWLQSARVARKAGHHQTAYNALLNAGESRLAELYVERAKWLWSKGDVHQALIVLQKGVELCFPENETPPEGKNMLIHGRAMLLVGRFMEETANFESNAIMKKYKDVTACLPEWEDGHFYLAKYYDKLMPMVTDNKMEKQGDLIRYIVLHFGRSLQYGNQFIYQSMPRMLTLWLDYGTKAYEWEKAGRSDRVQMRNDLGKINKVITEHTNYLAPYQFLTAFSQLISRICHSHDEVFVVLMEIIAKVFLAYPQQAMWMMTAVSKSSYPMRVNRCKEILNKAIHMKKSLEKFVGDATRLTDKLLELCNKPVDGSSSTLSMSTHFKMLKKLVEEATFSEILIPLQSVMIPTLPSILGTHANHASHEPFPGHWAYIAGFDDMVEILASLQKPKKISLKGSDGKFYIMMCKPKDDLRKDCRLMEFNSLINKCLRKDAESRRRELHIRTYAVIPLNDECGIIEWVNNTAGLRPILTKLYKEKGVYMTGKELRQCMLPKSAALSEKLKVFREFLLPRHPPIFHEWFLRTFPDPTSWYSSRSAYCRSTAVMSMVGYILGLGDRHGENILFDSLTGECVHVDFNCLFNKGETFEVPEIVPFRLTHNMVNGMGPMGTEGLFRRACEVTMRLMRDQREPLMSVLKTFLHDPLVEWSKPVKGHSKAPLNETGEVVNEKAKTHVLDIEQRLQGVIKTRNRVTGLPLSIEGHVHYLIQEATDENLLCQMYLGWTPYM
Assay: Inhibition of ATR in human HT-29 cells assessed as reduction in Chk1 phosphorylation at Ser-345 residue after 60 mins in presence of 4-nitroquinoline-1-oxide by Hoechst 33258 staining based plate reader analysis
pIC50: −log10 of the molar value.
Endpoint: pIC50

Illustrative cases are given below, each with its answer.
CCC(CC)CNc1c(C(N)=O)cnc2ccc(-c3ccc(COC)cc3)cc12 < 4.52
NC(=O)c1cnc2cc(Cl)c(-c3cccnc3)cc2c1NC1CCOCC1 < 4.52
CCC(CC)CNc1c(C(N)=O)cnc2ccc(-c3ccc(C)nc3)cc12 5.26

# assay system Serine/threonine-protein kinase ATR (Homo sapiens): give pIC50 of COCc1ccc(-c2cc3c(N[C@@H](C)c4nn(C)cc4F)c(C(N)=O)cnc3cc2F)cn1
< 4.52

# assay system Serine/threonine-protein kinase ATR (Homo sapiens): give pIC50 of CCC(CC)CNc1c(C(N)=O)cnc2ccc(-c3ccc(CO)nc3)cc12
< 4.89

* * *

Assay: physchem
Conditions: octanol/buffer, pH 7.4
Endpoint: logD
Write no unit; give the number alone.

Illustrative cases are given below, each with its answer.
CCC(CC)CNc1c(C(N)=O)cnc2ccc(-c3ccncc3)cc12 3.3
NC(=O)c1cnc2ccc(-c3cccnc3)cc2c1SC1CCCC1 3.2
COCc1ccc(-c2cc3c(N[C@@H](C)c4ccn(C)n4)c(C(N)=O)cnc3cc2F)cn1 2.7

State its logD for this molecule: NC(=O)c1cnc2ccc(-c3cccnc3)c(F)c2c1NC1CCOCC1
1.5

State its logD for this molecule: COc1cc2ncnc(-n3nc(-c4ccccn4)nc3N)c2cc1OC
2.6

State its logD for this molecule: COCc1ccc(-c2ccc3ncc(C(N)=O)c(N[C@@H](C)c4ccn(C)n4)c3c2)c(F)n1
2.6

* * *

Assay: Oral bioavailability in Han Wistar rat at 5 mg/kg
Assay type: ADME, organism-based
Details: in vivo
Endpoint: bioavailability (%)
Respond with the bare value in %.

COCc1ccc(-c2ccc3ncc(C(N)=O)c(N[C@@H](C)C4CCOCC4)c3c2)cn1 46

Next molecule, bioavailability to be filled in.
State its bioavailability for this molecule: COCc1ccc(-c2cc3c(N[C@@H](C)c4ccn(C)n4)c(C(N)=O)cnc3cc2F)cn1
29

* * *

Assay: Clearance in dog at 1 mg/kg, iv or 2 mg/kg, po
Type: ADME, organism-based, Canis lupus familiaris
Details: in vivo
Endpoint: clearance

State its clearance for this compound: COCc1ccc(-c2cc3c(N[C@@H](C)c4ccn(C)n4)c(C(N)=O)cnc3cc2F)cn1
13 mL/min/kg

* * *

Assay: Cmax in nude mouse at 50 mg/kg, po
Format: ADME, organism-based
Set-up: dose 50 mg/kg, route oral
Settings: in vivo
Endpoint: Cmax (µM)
Respond with the bare value in µM.

COCc1ccc(-c2ccc3ncc(C(N)=O)c(N[C@@H](C)C4CCOCC4)c3c2)cn1 6

Next compound, Cmax to be filled in.
State its Cmax for this compound: COCc1ccc(-c2cc3c(N[C@@H](C)c4ccn(C)n4)c(C(N)=O)cnc3cc2F)cn1
17
